Property: IC50; scope: individual molecules
target: SARS-CoV-2 main protease (Mpro) (Severe acute respiratory syndrome coronavirus 2); test: biochemical
Kindly provide the numeric value in µM only, without the unit symbol.

Recorded IC50 (molecule O=c1cc(-c2ccc(O)cc2)oc2cc(O)c([C@@H]3O[C@H](CO)[C@@H](O)[C@H](O)[C@H]3O)c(O)c12 [Compound 14, apigenin-6-C-β-D-glucoside (isovitexin)] ): 21.7

Recorded IC50 (molecule C[C@@H]1O[C@@H](Oc2cc3c(=O)oc4c(O)c(O)cc5c(=O)oc(c2O)c3c45)[C@H](O)[C@H](O)[C@H]1O ): 22.3

----------
assay: Cell viability; type: cell-based; details: human, normal HUVEC cells
measured endpoint: IC50 at 48 h

Worked cases, answers included:
O=c1cc(-c2ccc(O)cc2)oc2cc(O)c([C@@H]3O[C@H](CO)[C@@H](O)[C@H](O)[C@H]3O)c(O)c12 [Compound 14, apigenin-6-C-β-D-glucoside (isovitexin)] = > 100 µg/mL
C[C@@H]1O[C@@H](Oc2cc3c(=O)oc4c(O)c(O)cc5c(=O)oc(c2O)c3c45)[C@H](O)[C@H](O)[C@H]1O = > 100 µg/mL

Pending molecule:
Recorded IC50 at 48 h (molecule COc1cccc2c1C(=O)c1c(O)c3c(c(O)c1C2=O)C[C@@](O)(C(=O)CO)C[C@@H]3O[C@H]1C[C@H](N)[C@H](O)[C@H](C)O1 [Doxorubicin, reference compound] ): 2.5 µg/mL

Taken from paper PMC10973196.
